Target: UniProtKB P06737
pIC50: −log10 of the molar value.
Everything with pIC50 lower than 8 is FALSE; everything else, including exactly 8, is TRUE.

Req: Has O=C(Nc1c(F)cccc1Oc1ccc(C(=O)O)c(C(=O)O)c1)c1cc([N+](=O)[O-])ccn1 a recorded pIC50 greater than or equal to 8?
Resp: TRUE

Req: Has O=C(Nc1cc2ccccc2cc1Oc1ccc(C(=O)O)c(C(=O)O)c1)c1ccccn1 a recorded pIC50 greater than or equal to 8?
Resp: FALSE

Req: Has O=C(Nc1cc2ccccc2cc1Oc1ccc(C(=O)O)c(C(=O)O)c1)c1cc([N+](=O)[O-])ccn1 a recorded pIC50 greater than or equal to 8?
Resp: TRUE

Req: Has O=C(Nc1cc2ccccc2cc1Oc1ccc(C(=O)O)c(C(=O)O)c1)c1cccc([N+](=O)[O-])c1 a recorded pIC50 greater than or equal to 8?
Resp: FALSE

Req: Has COc1ccnc(C(=O)Nc2cc3ccccc3cc2Oc2ccc(C(=O)O)c(C(=O)O)c2)c1 a recorded pIC50 greater than or equal to 8?
Resp: TRUE

Others:
Req: Has COc1ccnc(C(=O)Nc2ccccc2Oc2ccc(C(=O)O)c(C(=O)O)c2)c1 a recorded pIC50 greater than or equal to 8?
Resp: FALSE

Req: Has O=C(Nc1ccccc1Oc1ccc(C(=O)O)c(C(=O)O)c1)c1cc(I)ccn1 a recorded pIC50 greater than or equal to 8?
Resp: FALSE

Req: Has O=C(Nc1ccccc1Oc1ccc(C(=O)O)c(C(=O)O)c1)c1cc([N+](=O)[O-])ccn1 a recorded pIC50 greater than or equal to 8?
Resp: TRUE

----------
Target: UniProtKB P11217
Entries whose IC50 is below 100 nM take 1.0; entries at or above 100 nM take 0.0.

Reference set, count: 4
Req: Input O=C(Nc1ccccc1Oc1ccc(C(=O)O)c(C(=O)O)c1)c1cc(Cl)ccn1 ; condition: IC50 strictly below 100 nM. Does it hold?
Resp: 0.0

Req: Input COc1ccnc(C(=O)Nc2c(F)cccc2Oc2ccc(C(=O)O)c(C(=O)O)c2)c1 ; condition: IC50 strictly below 100 nM. Does it hold?
Resp: 0.0

Req: Input O=C(Nc1cc2ccccc2cc1Oc1ccc(C(=O)O)c(C(=O)O)c1)c1ccccc1 ; condition: IC50 strictly below 100 nM. Does it hold?
Resp: 0.0

Req: Input O=C(Nc1cc2ccccc2cc1Oc1ccc(C(=O)O)c(C(=O)O)c1)c1ccccn1 ; condition: IC50 strictly below 100 nM. Does it hold?
Resp: 0.0

Others:
Req: Input O=C(Nc1cc2ccccc2cc1Oc1ccc(C(=O)O)c(C(=O)O)c1)c1cc([N+](=O)[O-])ccn1 ; condition: IC50 strictly below 100 nM. Does it hold?
Resp: 1.0

Req: Input O=C(Nc1cc2ccccc2cc1Oc1ccc(C(=O)O)c(C(=O)O)c1)c1cc(Cl)ccn1 ; condition: IC50 strictly below 100 nM. Does it hold?
Resp: 1.0

Req: Input CCc1ccnc(C(=O)Nc2cc3ccccc3cc2Oc2ccc(C(=O)O)c(C(=O)O)c2)c1 ; condition: IC50 strictly below 100 nM. Does it hold?
Resp: 1.0

----------
Test description: Cmax in male mice after 2 mg/kg oral dose
Type: ADME, organism-based
Design: dose 2 mg/kg, route oral
Assay conditions: mouse, in vivo
Measurement name: Cmax (nM)
Supply the numeric figure in nM, leaving out any unit text.

Req: Report Cmax, nothing else, for this compound: O=C(Nc1c(F)cccc1Oc1ccc(C(=O)O)c(C(=O)O)c1)c1cc(Cl)ccn1
Resp: 44

----------
Test description: Bioavailability in male mice, 2mg/kg oral and 1 mg/kg intravenous dose
Type: ADME, organism-based
Assay conditions: mouse, in vivo
Measurement name: bioavailability (%)
Supply the numeric figure in %, leaving out any unit text.

Req: Report bioavailability, nothing else, for this compound: O=C(Nc1c(F)cccc1Oc1ccc(C(=O)O)c(C(=O)O)c1)c1cc(Cl)ccn1
Resp: 4.1

----------
Below, each entry is listed alongside its reported IC50.
Target sequence: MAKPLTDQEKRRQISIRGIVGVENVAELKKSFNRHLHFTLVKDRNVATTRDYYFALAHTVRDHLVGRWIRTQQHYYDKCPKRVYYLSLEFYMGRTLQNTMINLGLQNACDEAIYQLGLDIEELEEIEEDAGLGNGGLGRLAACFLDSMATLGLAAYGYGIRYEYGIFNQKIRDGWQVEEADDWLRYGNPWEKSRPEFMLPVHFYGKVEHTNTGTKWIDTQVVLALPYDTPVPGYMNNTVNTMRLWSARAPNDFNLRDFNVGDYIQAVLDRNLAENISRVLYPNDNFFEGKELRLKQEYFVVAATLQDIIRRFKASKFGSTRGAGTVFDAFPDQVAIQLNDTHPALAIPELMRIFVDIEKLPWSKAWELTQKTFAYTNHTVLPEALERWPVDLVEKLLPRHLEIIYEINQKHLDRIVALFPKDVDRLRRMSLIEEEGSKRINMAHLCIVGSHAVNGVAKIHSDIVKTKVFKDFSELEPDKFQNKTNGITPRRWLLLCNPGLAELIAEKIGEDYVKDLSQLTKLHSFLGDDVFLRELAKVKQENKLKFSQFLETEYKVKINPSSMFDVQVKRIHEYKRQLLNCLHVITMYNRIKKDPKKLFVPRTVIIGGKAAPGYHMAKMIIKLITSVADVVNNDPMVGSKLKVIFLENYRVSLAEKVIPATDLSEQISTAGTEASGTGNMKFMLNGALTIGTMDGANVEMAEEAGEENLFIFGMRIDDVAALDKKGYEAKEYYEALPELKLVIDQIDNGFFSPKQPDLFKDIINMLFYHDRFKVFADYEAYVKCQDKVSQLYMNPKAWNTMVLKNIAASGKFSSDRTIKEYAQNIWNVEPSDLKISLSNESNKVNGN
Supply the numeric figure in nM, leaving out any unit text.

Req: Report IC50, nothing else, for this compound: O=C(Nc1cc2ccccc2cc1Oc1ccc(C(=O)O)c(C(=O)O)c1)c1cc(C(F)(F)F)ccn1
Resp: 12

Req: Report IC50, nothing else, for this compound: O=C(Nc1c(F)cccc1Oc1ccc(C(=O)O)c(C(=O)O)c1)c1cc(Cl)ccn1
Resp: 10

Then there is this compound:
Req: Report IC50, nothing else, for this compound: O=C(Nc1ccccc1Oc1ccc(C(=O)O)c(C(=O)O)c1)c1cc(Cl)ccn1
Resp: 17

----------
Target: Glycogen phosphorylase, muscle form (Homo sapiens)
Sequence (P11217 whole entry): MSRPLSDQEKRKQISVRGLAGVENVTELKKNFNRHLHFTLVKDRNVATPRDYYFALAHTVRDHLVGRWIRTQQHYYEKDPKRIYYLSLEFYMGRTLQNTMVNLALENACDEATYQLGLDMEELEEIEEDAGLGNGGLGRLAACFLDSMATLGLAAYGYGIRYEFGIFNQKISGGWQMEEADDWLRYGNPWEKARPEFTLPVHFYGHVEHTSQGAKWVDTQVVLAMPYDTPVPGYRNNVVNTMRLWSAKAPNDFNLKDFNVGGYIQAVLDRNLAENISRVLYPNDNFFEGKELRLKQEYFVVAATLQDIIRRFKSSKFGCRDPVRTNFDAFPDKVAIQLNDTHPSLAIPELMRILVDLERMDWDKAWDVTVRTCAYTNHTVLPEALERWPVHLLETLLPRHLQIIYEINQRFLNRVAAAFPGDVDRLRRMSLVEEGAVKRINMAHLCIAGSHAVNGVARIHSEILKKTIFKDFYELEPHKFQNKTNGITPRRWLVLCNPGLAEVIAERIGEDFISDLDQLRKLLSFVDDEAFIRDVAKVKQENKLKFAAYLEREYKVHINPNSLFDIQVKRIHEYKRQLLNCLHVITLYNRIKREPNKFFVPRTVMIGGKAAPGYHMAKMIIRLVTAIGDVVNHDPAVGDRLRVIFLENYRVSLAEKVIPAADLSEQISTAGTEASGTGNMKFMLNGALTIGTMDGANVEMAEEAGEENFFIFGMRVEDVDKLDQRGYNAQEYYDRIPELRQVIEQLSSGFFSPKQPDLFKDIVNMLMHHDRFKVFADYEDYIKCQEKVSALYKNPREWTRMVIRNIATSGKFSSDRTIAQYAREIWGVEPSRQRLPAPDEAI
Measurement name: IC50

Some molecules with recorded IC50:
Req: Report its IC50 with Glycogen phosphorylase, muscle form (Homo sapiens) as the test system: Cc1ccnc(C(=O)Nc2cc3ccccc3cc2Oc2ccc(C(=O)O)c(C(=O)O)c2)c1
Resp: 57 nM

Req: Report its IC50 with Glycogen phosphorylase, muscle form (Homo sapiens) as the test system: COc1ccnc(C(=O)Nc2ccccc2Oc2ccc(C(=O)O)c(C(=O)O)c2)c1
Resp: 200 nM

Req: Report its IC50 with Glycogen phosphorylase, muscle form (Homo sapiens) as the test system: O=C(Nc1c(F)cccc1Oc1ccc(C(=O)O)c(C(=O)O)c1)c1cccc([N+](=O)[O-])c1
Resp: 1860 nM

Req: Report its IC50 with Glycogen phosphorylase, muscle form (Homo sapiens) as the test system: O=C(Nc1ccccc1Oc1ccc(C(=O)O)c(C(=O)O)c1)c1cc([N+](=O)[O-])ccn1
Resp: 25 nM

Req: Report its IC50 with Glycogen phosphorylase, muscle form (Homo sapiens) as the test system: O=C(Nc1cc(F)ccc1Oc1ccc(C(=O)O)c(C(=O)O)c1)c1cc([N+](=O)[O-])ccn1
Resp: 109 nM

Req: Report its IC50 with Glycogen phosphorylase, muscle form (Homo sapiens) as the test system: O=C(Nc1cc2ccccc2cc1Oc1ccc(C(=O)O)c(C(=O)O)c1)c1cc(C(F)(F)F)ccn1
Resp: 80 nM

Req: Report its IC50 with Glycogen phosphorylase, muscle form (Homo sapiens) as the test system: O=C(Nc1c(F)cccc1Oc1ccc(C(=O)O)c(C(=O)O)c1)c1cc([N+](=O)[O-])ccn1
Resp: 9 nM

Req: Report its IC50 with Glycogen phosphorylase, muscle form (Homo sapiens) as the test system: O=C(Nc1cc2ccccc2cc1Oc1ccc(C(=O)O)c(C(=O)O)c1)c1cccc([N+](=O)[O-])c1
Resp: 140 nM

Others:
Req: Report its IC50 with Glycogen phosphorylase, muscle form (Homo sapiens) as the test system: O=C(Nc1c(F)cccc1Oc1ccc(C(=O)O)c(C(=O)O)c1)c1cc(Cl)ccn1
Resp: 60 nM

Req: Report its IC50 with Glycogen phosphorylase, muscle form (Homo sapiens) as the test system: O=C(Nc1ccccc1Oc1ccc(C(=O)O)c(C(=O)O)c1)c1cc(I)ccn1
Resp: 468 nM
